test system: Staphylococcus aureus; assay: Antimicrobial activity against Staphylococcus aureus ATCC 29218; format: functional; conditions: ATCC 29213, in the assay text read “ATCC 29213” for “ATCC 29218”
Measured MIC of individual entries
Give your result in µg/mL as a bare value.

Using the record for CC(COS(=O)(=O)O)[C@H](O)CC[C@@H](C)[C@H]1CC[C@H]2[C@@H]3[C@H](O)C[C@H]4C[C@@H](NCCCNCCCCN)CC[C@]4(C)[C@H]3CC[C@]12C (stereo not given in full) , report its MIC. 4

Another molecule to check: CC(CSCC(N)C(=O)O)C(=O)CC[C@@H](C)[C@H]1CC[C@H]2[C@@H]3[C@H](O)C[C@H]4C[C@@H](NCCCNCCCCN)CC[C@]4(C)[C@H]3CC[C@]12C (stereo not given in full) 8

Similarly, `CC(C)[C@](CO)(CC[C@@H](C)[C@H]1CC[C@H]2[C@@H]3[C@H](O)C[C@H]4C[C@@H](NCCCNCCCCN)CC[C@]4(C)[C@H]3CC[C@]12C)OS(=O)(=O)O` ? 2

Item: `CC(C)[C@@H](CC[C@@H](C)[C@H]1CC[C@H]2[C@@H]3[C@H](O)C[C@H]4C[C@@H](NCCCNCCCCN)CC[C@]4(C)[C@H]3C[C@H](O)[C@]12C)OS(=O)(=O)O` 8

API: the following record is the query input.
Fill in: MIC of `C=C(C)C(=O)CC[C@@H](C)[C@H]1CC[C@H]2[C@@H]3[C@H](O)C[C@H]4C[C@@H](NCCCNCCCCN)CC[C@]4(C)[C@H]3CC[C@]12C` is ___ 2
